molecular target: human TLR7 (Homo sapiens); assay: TLR7 inhibition reporter assay (HEK-Blue cells, secreted embryonic alkaline phosphatase reporter); conditions: HEK-Blue cells overexpressing human TLR7, stimulated with gardiquimod 7.5 μM; read-out: TLR 7 IC50
Sequence (Q9NYK1 27-1049): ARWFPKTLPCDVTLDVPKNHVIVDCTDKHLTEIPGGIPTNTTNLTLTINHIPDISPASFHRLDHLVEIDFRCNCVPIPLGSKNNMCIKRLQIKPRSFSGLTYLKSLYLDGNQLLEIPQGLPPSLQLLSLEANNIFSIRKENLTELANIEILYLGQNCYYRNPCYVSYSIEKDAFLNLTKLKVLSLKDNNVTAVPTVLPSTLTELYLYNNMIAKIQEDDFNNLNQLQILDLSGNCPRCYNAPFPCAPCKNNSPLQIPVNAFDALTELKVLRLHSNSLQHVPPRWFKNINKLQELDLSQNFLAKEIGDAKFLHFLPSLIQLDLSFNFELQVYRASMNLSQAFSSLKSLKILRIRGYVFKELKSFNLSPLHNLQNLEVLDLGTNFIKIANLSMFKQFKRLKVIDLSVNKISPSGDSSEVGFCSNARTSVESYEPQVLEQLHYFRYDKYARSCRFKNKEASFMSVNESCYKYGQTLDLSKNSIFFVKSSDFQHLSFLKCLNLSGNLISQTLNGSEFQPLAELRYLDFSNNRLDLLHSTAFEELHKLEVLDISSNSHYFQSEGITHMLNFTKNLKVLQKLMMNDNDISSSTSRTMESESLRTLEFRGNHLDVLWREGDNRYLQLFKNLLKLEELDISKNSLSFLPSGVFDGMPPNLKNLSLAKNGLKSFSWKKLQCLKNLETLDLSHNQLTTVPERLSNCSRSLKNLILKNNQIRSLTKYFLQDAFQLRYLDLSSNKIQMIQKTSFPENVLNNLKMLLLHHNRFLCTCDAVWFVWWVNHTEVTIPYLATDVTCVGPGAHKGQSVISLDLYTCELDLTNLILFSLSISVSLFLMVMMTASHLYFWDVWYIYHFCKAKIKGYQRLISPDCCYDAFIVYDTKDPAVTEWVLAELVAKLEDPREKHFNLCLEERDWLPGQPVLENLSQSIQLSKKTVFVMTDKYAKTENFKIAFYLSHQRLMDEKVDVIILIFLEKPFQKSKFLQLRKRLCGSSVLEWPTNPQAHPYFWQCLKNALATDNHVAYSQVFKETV
assay-endpoint: pIC50
The value called pIC50 is obtained by taking minus log10 of the concentration in mol/L.

Would you please look over these solved cases?
molecule	system-under-test	pIC50
COCCN1C2CCC1CC(N1CCC(c3cc(C)c4nc(-c5ccc(S(C)(=O)=O)cc5)n(C)c4c3)CC1)C2 (single isomer, unassigned) [Example 162]	human TLR7 (Homo sapiens)	4.70
CC(C)CN1C2CCC1CC(N1CCC(c3cc(F)c4nc(-c5ccc(S(C)(=O)=O)cc5)n(C5CC5)c4c3)CC1)C2 (single isomer, unassigned) [Example 322]	human TLR7 (Homo sapiens)	5.85

Data request: Record request: pIC50 value, item COc1ccc(-c2nc3c(C)cc(C4CCN(C5CCN(C6CC6)CC5)CC4)cc3[nH]2)cc1F
Data returned: 4.80

Provenance of the data: patent US12492188B2
